experimental_protocol: Inhibition of rat GGTase-1 using geranylgeranyl-pyrophosphate and dansyl-GCVLL as substrate preincubated for 5 mins measured after 15 mins by fluorescence assay
Kindly state pIC50 for each of the entries shown.
Note on units: pIC50 is unitless, being -log10 of a concentration expressed in mol/L.

Memo: O=C1NCC(=O)N(Cc2ccc(Oc3ccc(Cl)c(Cl)c3)cc2)[C@H]1Cc1c[nH]c2ccccc12 , reported pIC50: 7.03

Memo: O=C1NCC(=O)N(Cc2ccc(N3CCOCC3)cc2)[C@@H]1Cc1c[nH]c2ccccc12 , reported pIC50: 7.06

Memo: COc1ccc(CN2C(=O)CNC(=O)[C@@H]2Cc2c[nH]cn2)cc1 , reported pIC50: 6.23

Memo: COc1ccc(CN2C(=O)CNC(=O)[C@@H]2CCSC)cc1 , reported pIC50: 6.15

Memo: O=C1NCC(=O)N(Cc2ccc(N3CCOCC3)cc2)[C@H]1Cc1c[nH]c2ccccc12 , reported pIC50: 6.91

Memo: O=C1NCC(=O)N(Cc2ccc(Cl)cc2)[C@@H]1Cc1c[nH]c2ccccc12 , reported pIC50: 6.77

Memo: N#Cc1ccc(CN2C(=O)CNC(=O)[C@H]2Cc2c[nH]c3ccccc23)cc1 , reported pIC50: 6.89

Memo: O=C1NCC(=O)N(Cc2ccco2)[C@@H]1Cc1c[nH]c2ccccc12 , reported pIC50: 6.66

Memo: O=C1NCC(=O)N(Cc2ccc(Br)cc2)[C@@H]1Cc1c[nH]c2ccccc12 , reported pIC50: 6.92

Memo: COc1ccc(CN2C(=O)CNC(=O)[C@@H]2Cc2c[nH]c3ccccc23)cc1 , reported pIC50: 6.28

---

experimental_protocol: Inhibition of rat GGTase-1 using geranylgeranyl-pyrophosphate and dansyl-GCVLL as substrate preincubated for 5 mins measured after 15 mins by fluorescence assay
property: IC50 (nM)
Give just the numeric value; nM need not be written.

Memo: O=C1NCC(=O)N(Cc2ccco2)[C@H]1Cc1ccccc1 , reported IC50: 1820

Memo: CC(C)C[C@@H]1C(=O)NCC(=O)N1Cc1ccco1 , reported IC50: 1660

Memo: COc1c(Cl)cc(Cl)cc1CN1C(=O)CNC(=O)[C@H]1Cc1c[nH]c2ccccc12 , reported IC50: 78.2

Memo: O=C1NCC(=O)N(Cc2ccco2)[C@H]1CSCc1ccccc1 , reported IC50: 270

Memo: COc1ccc(C[C@@H]2C(=O)NCC(=O)N2Cc2ccc(OC)cc2)cc1 , reported IC50: 380

Memo: O=C1NCC(=O)N(Cc2ccco2)[C@@H]1CSCc1ccccc1 , reported IC50: 760

Memo: O=C1NCC(=O)N(Cc2ccc(Oc3cccc(Cl)c3)cc2)[C@@H]1Cc1c[nH]c2ccccc12 , reported IC50: 32.3

Memo: COc1ccc(C[C@@H]2C(=O)NCC(=O)N2Cc2ccco2)cc1 , reported IC50: 410

Memo: CC(C)[C@@H]1C(=O)NCC(=O)N1Cc1ccco1 , reported IC50: 1920

Memo: COc1ccc(CN2C(=O)CNC(=O)[C@H]2CCSC)cc1 , reported IC50: 320

Memo: COc1ccc(CN2C(=O)CNC(=O)[C@H]2C)cc1 , reported IC50: 2830

---

experimental_protocol: Inhibition of rat FTase using farnesylpyrophosphate and dansyl-GCVLS as substrate preincubated for 5 mins measured after 15 mins by fluorescence assay
Entries whose IC50 is below 100 nM take Fulfilled; entries at or above 100 nM take Not fulfilled.

INPUT: Bench note: check whether N#Cc1ccc(CN2C(=O)CNC(=O)[C@@H]2Cc2c[nH]c3ccccc23)cc1 shows IC50 below 100 nM
OUTPUT: Fulfilled

INPUT: Bench note: check whether COc1ccc(CN2C(=O)CNC(=O)[C@@H]2Cc2c[nH]cn2)cc1 shows IC50 below 100 nM
OUTPUT: Not fulfilled

INPUT: Bench note: check whether COc1ccc(CN2C(=O)CNC(=O)[C@H]2C(C)C)cc1 shows IC50 below 100 nM
OUTPUT: Not fulfilled

INPUT: Bench note: check whether COc1c(Cl)cc(Cl)cc1CN1C(=O)CNC(=O)[C@H]1Cc1c[nH]c2ccccc12 shows IC50 below 100 nM
OUTPUT: Fulfilled

INPUT: Bench note: check whether COc1ccc(CN2C(=O)CNC(=O)[C@H]2C)cc1 shows IC50 below 100 nM
OUTPUT: Not fulfilled

INPUT: Bench note: check whether COc1ccc(C[C@@H]2C(=O)NCC(=O)N2Cc2ccc(OC)cc2)cc1 shows IC50 below 100 nM
OUTPUT: Not fulfilled

INPUT: Bench note: check whether O=C1NCC(=O)N(Cc2ccc(Br)cc2)[C@H]1Cc1c[nH]c2ccccc12 shows IC50 below 100 nM
OUTPUT: Fulfilled
